B1: Osa-1-4 twister ribozyme (parent)
chain: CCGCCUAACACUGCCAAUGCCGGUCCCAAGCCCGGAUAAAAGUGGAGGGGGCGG

# Variants of: B1
# run description: self-cleavage, relative activity (ratio to wild type); higher = more cleavage; co-transcriptional
Binary classification by self-cleavage, with 0.07 as an inclusive lower bound for Yes; all other cases are No.

[[record]]
mutation_string = "G23C G47C"
label_value = "No"

[[record]]
mutation_string = "G44C U24C"
label_value = "Yes"

[[record]]
mutation_string = "A16G G30A"
label_value = "No"

[[record]]
mutation_string = "G51A G54A"
label_value = "Yes"

[[record]]
mutation_string = "C15G"
label_value = "Yes"

[[record]]
mutation_string = "A8C C15G"
label_value = "No"

[[record]]
mutation_string = "C27A G13U"
label_value = "No"

